Listing of recorded pKd by entry.
# System tested: T1, ADI-76360
# T1 construct: anti-CD3 antibody made in CHO cells, captured by anti-human Fc
# T1 sequence (VH, as listed by the source, chain 1 of 2): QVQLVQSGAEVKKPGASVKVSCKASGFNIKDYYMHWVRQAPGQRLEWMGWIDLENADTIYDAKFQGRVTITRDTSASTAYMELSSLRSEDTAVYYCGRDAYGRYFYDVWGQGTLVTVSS
# T1 sequence (VL, as listed by the source, chain 2 of 2): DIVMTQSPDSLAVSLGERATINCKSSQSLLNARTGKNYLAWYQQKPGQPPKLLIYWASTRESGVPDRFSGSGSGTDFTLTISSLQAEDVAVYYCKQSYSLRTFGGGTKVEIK
# Assay overview: SPR Carterra avidity, yeast anti-ID
By convention, pKd is the negative base-10 log of a molar concentration.

ADI-34132 (antibody, V domains shown, anti-ID IgG) VH: QVQLVQSGAEVKKPGSSVKVSCKASGGTFSSYAISWVRQAPGQGLEWMGGIIPIFGTANYAQKFQGRVTITADESTSTAYMELSSLRSEDTAVYYCARGAPNYYGSGGYDDGWFDPWGQGTLVTVSS VL: DIQLTQSPSSLSASVGDRVTITCRASQSISSYLNWYQQKPGKAPKLLIYAASNLQSGVPSRFSGSGSGTDFTLTISSLQPEDFATYYCQQTLHTPITFGGGTKVEIK    9.21

Could you now consider this next binder?
Query: Param item = ADI-34138 (antibody, V domains shown, anti-ID IgG) VH: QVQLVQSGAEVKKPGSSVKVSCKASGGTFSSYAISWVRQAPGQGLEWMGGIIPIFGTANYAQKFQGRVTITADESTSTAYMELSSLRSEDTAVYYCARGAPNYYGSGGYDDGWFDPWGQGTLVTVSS VL: EIVMTQSPGTLSLSPGERATLSCRASQSVSSSYLAWYQQKPGQAPRLLIYGASNRATGIPDRFSGSGSGTDFTLTISRLEPEDFAVYYCQQAHTALWTFGGGTKVEIK ; retrieve measured pKd.
Response: 7.24
